- STUDY_SYSTEM: T1, anti-CD28 scFv (VH-linker 1-VL) (biotinylated (site not stated))
- T1 construct: Captured as biotinylated scFv on neutravidin coated plates in the phage ELISA
- T1 sequence (scFv, as listed by the source): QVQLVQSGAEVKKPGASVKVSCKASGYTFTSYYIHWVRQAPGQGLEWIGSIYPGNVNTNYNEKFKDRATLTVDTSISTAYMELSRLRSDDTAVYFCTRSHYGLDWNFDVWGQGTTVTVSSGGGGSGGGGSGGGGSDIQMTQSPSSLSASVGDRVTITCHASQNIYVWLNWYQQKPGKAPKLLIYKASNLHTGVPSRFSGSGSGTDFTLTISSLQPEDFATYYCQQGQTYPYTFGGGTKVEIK
- MEASUREMENT_NOTES: phage ELISA; scFv wells pre-incubated with soluble CD28 (competitor);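 also: crude clonal phage supernatants added to wells pretreated with soluble CD28 in blocking buffer, bound phage read via HRP-linked anti-M13 antibody, reference wells got blocking buffer only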
PROPERTY: CD28 scFv signal in presence of CD28
Hey, just send me the number, nothing else.

MDWCPSDMWAHCYN (on phage (pIII fusion)) [Phage-249 clonal phage peptide] :: 0.109
MDWCPRHLWYECFN (on phage (pIII fusion)) [Phage-243 clonal phage peptide] :: 0.167
MDWCPRHLWTECFS (on phage (pIII fusion)) [Phage-297 clonal phage peptide] :: 0.243
MDWCPRHMWINCFA (on phage (pIII fusion)) [Phage-252 clonal phage peptide] :: 0.165

## Task Query CD28 scFv signal in presence of CD28 for MDWCPRYLWHECFS (on phage (pIII fusion)) [Phage-235 clonal phage peptide]
## Result 0.303

## Task Query CD28 scFv signal in presence of CD28 for MDWCPRHLWSVCFN (on phage (pIII fusion)) [Phage-255 clonal phage peptide]
## Result 0.825

## Task Query CD28 scFv signal in presence of CD28 for TTWCPTSMWLHCFD (on phage (pIII fusion)) [Phage-221 clonal phage peptide]
## Result 0.072

## Task Query CD28 scFv signal in presence of CD28 for MSWCPRDLWHLCFF (on phage (pIII fusion)) [Phage-319 clonal phage peptide]
## Result 0.319
